system: MS2 coat protein; assay: apparent KD of MS2 coat protein; designed switch direction (-1 OFF switch, 1 ON switch): 1; higher = weaker reporter binding; settings: input ligand: none
Each record here notes measured apparent KD of MS2 coat protein.
Give the number; nM is assumed, so skip it.

What value of measured apparent KD of MS2 coat protein is listed for CCCUGAGGCAGCCUACAGGGACAUGAGGAUCACCCAUGUACACAGGAUAUCGAGGGCUCCGCCCUCGAGAAGGGUGAUCAGACU [Redied] (Eterna round: R96, puzzle: Same State NG 3) ?
97.4

Also GCUCGUAUCACAACCGACAUGAGGAUCACCCAUGUAUGUUGGUAGGAUAUCUAUAUUAAGGAUAUAGAGAAGGGCCGAACGAGC [SameState NG3 #13] (Eterna round: R96, puzzle: Same State NG 3) ?
18.7

// below: apparent KD of MS2 coat protein requested for another sequence
Recorded apparent KD of MS2 coat protein of GCCCGACUCACAGGAUAUGUACCGCCCGAAACAACAGAAGGGUGAGAUCCGGCAUGCACUGACAUGAGGAUCACCCAUGUCCUU [Gebege] (Eterna round: R96, puzzle: Same State NG 1) , please.
765

====

Documented apparent KD of MS2 coat protein across a set of sequences
tested on: MS2 coat protein; assay: apparent KD of MS2 coat protein; higher = weaker reporter binding; conditions: Eterna round: R107; input ligand: none
I only need the number, in nM, no unit after it.

Check out these entries, answers already filled in.
Bench note: what apparent KD of MS2 coat protein did CAUAUAUAUAGAAGGAGCGACAUGAGGAUCACCCAUGUCUACCACGUCGAAAGACGCUCAUGUCAGGUAGGUCGCUAUAUAUAUG [Astros-Eli-mod2] show?
115

Then what about the sequence UCCACAUGAGGAUCACCCAUGUGCCAUGAUACCAGACAUGAAAAUGUCCCUUGGCAGCAUGAGUGAGGCAUCCGAAAGGAUGCCU [Chrlice] ?
157

Follow-up item: UCAGUGCAAGGAAGGAGCGGGUACAUGAGGAUCACCCAUGUGCAAGUGGUGAGCGUUUGUGCCCAGGUAGGUCGCCUAGCCUGGU [XArg-B18]
125

Next record, please: CACAUGAGGAUCACCCAUGUCUGAACUGAAGGAGCGCUAAACAAGGCAGGUAGGUCGCGGAAUUUUGUGUGCAUAUGCAUAUGGG [9.N]
24.5

Quick one: CAAUAUAUAACGGCCGCCACUUACUCAUGAGGUAACAACAUGAGGAUCACCCAUGUUUGAGGAUCAAGGACCGGGUUAUAUAUUG [AstrosSSTry#19]
28

Proceed to AGAGUCUAGUCGGCCGCCACUCAUGUCCGAAGGACAUGAGGAUCACCCAUGUACCAAUGGUACAUGAGGACCGGGACUGGACUCA [Omei Tryp B SS C v3]
39.9

Next:
Give its apparent KD of MS2 coat protein value. Item: AAAUGUGUAAAAGCUUUAACACCCUGAGAAGGAGCGCAAUAAAUUGCAGGUAGGUCGCUCAGACAUGAGGAUCACCCAUGUAACC [Atrabeor]
39.6

Next: GCGGACAUGAGGAUCACCCAUGUAAAUCCUCGAGGACCGGUACGGCCGCCACUCGAACGAGUGGCGCGCGAGCGCGCGCUCGCGC [aBa]
30.2

Entry to check: GUCCGACAUGAGGAUCACCCAUGUACUGAAGGAGCGGACAAAUGUCCAGGUAGGUCGCAGCUAUAUGGUGUGGACCGAUCCGGAC [Ustius]
22

Entry to check: AAGAUAAGUACUGAUACCAGAGACAUGAGGAUCACCCAUGUCAAAUAAUAAUACCUCAGACUCCCUUGGCAGCAGGAUAAAUGAG [Exclusion Theophylline B GF1]
11.7

// same read-out, input: UUGGGUUUGUGAAGGAGCGGGAAAGUUUUAUAGUGAAUCCUAACAUGAGGAUCACCCAUGUCCCAGGUAGGUCGCGCGGGUUUGG [12.Q]
134

Would you mind doing UCGGGCCUUCUUUCUUGGCCCGUUACAGAAGGAGCGUCGGAAAUGACAGGUAGGUCGCUGAGAACAUGAGGAUCACCCAUGUAUU [SSAA #14] as well?
26.4

Then this sequence: ACAUGAGGAUCACCCAUGUGAUGGCACGAUACCAGCUGAUCCCGUGGCCCUUGGCAGCGUCCGGUGUGGUCCGGCGGGUGGGACG [qqwmullin]
21.5

Now give it for UCAUGCAGGUCGGCCGCCACUACACACAUGAGGAUCACCCAUGUAGUUACUGGGUGAAGUGGCAGUAGGACCGGGACCUGCACAC [Brourdmod17] too.
504

Query GCUGUACCAUGAAGGAGCGCUUUAAUUAUAGAAGAUACAUGAGGAUCACCCAUGUUCCUCGAGCAGGUAGGUCGCAUGGUACAGC [SSAB #18] next
20.3

Try the sequence GCACAAGAUGGAAGGAGCGCUGGAAAAGGUCACAUGAGGAUCACCCAUGUUCUCCGAACCGAGCAGGUAGGUCGCUAUCUUGUGC [#09 Same State - Arginine B]
41.9

Now the same for CAGGUCAGGGCGGCCGCCACUGUGGCUACGGUACAUGAGGAUCACCCAUGUUUGUGGUUGAUCUACAGGACCGGGCCCUAACACG [Beabe]
430

Similarly, GGCACGUACGGAAGGAGCGACUGUUCAACGUGGGUACAUGAGGAUCACCCAUGUCUCCGCAGUCAGGUAGGUCGCCGUACGUGCC [EAB NP+V+V2 #20] ?
12.2

Entry to check: AUAACAUGAGGAUCACCCAUGUAAGCUGAAGGAGCGGACGAAAGUCCAGGUAGGUCGCAGCACUCCUUCAACAUGGGAGAGGGAG [(M1)-(M2)-(Arg1)-(Arg2)-(A)'-(M)'-(A)''_Design1]
64.2

// same read-out, input: `ACAUGAGGAUCACCCAUGUAGAAAGAUCCUCGAGGACCGGUACGGCCGCCACUCGAGUGGCAGUGUGUGCAGAAAAUGCGCGCGC`
50.9

====

system: MS2 coat protein; assay: apparent KD of MS2 coat protein, switch ON state; designed switch direction (-1 OFF switch, 1 ON switch): -1; higher = weaker reporter binding; details: FMN input: 0 or 200 uM; Eterna round: R93 (includes R88 designs)
MEASUREMENT_LABEL: apparent KD of MS2 coat protein (nM)
Give the value, in units of nM, as a plain number.

Example entries and their recorded answers appear below.
I'm curious: which apparent KD of MS2 coat protein was measured for AGAAAACAUGAGGAUCACCCAUGUCAGGAUAUCUAAAAGAAAAGAAAAGAAAGAAGAAGGAGAAGGGACAAGAA [Djoser] tested on MS2 coat protein?
21.2

// repeat for AGUUAGCGAGGAUAUACAUGAGGAUCACCCAUGUGAGAGAAAAAAGUGAGAAAGAAAAGUAGAAGGCGCUAACA [Moding Norbert Elias (73)] and report
42.3

Check AAAGAUACAGGAUAUACAUGAGGAUCACCCAUGUUAGACCAAAAAUGGGAAAAAGAAAGUAGAAGGGUAUAAAA [Ex 3 May 35] too.
26

// next record AAGAAGGCAGGAUAUACAAAAUAAAAGAAAAGAAAGAAAGAACAUGAGGAUCACCCAUGUAGAAGGGCUAAGAA [Merhotepre Ini]
50.9

Next:
Kindly state the measured apparent KD of MS2 coat protein obtained for AAUAAGUGAGGAUAUGUGAAUAGAAGAUAAGAUACCCAAAAACAGAAGGCACAUGAGGAUCACCCAUGUAAAUA [JR_Exc004_Sub009] with MS2 coat protein.
33.7

====

system: K4 kissing-loop RNA reporter; assay: apparent KD of K4 kissing-loop reporter; higher = weaker reporter binding; settings: Eterna round: R107; input ligand: arginine 13.2 mM;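 further: bound reporter read as fluorescence of individual clusters on recovered sequencing chips by microscopy, with normalized cluster intensities fitted with a binding model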
# binarize apparent KD of K4 kissing-loop reporter: threshold 80 nM inclusive, high side Condition met, low side Condition not met

# check: apparent KD of K4 kissing-loop reporter of GUCCACACUGCAGGAUAUGGAGAAAUAGCGAGGGAGCUUGGAAGCACGCCUCUGGCAGUGAUGUUGCCAGAAGGGCGGUGCGGCG [Dilazasole] is greater than or equal to 80 nM
Condition not met

What about this sequence? AGCAGUGAUGUUGCAUUUAAAAUGACCGAUACCAGUAUCGAUAGAUACCCUUGGCAGCGGAUUUCCGCAACGACUAGGAAACUAG [Ex Theophylline A K4 15]
Condition met

***
Does AAUGUACAGGGAAGGAGCGUAGUCCAGUGAUGUUGGAGUUAAAUACCAGUGAUGUUGGUUAUACAGGUAGGUCGCCCUAAAGUGC [Exclusion Arginine B Gf 4] have a reported apparent KD of K4 kissing-loop reporter of at least 80 nM?
Condition not met

And the next one, CAGCGGAGUGAUGUUCUGCUUACUGCGGAUACCAGCUUCGCCAGAGGCCCUUGGCAGCCGGGCGGCUCAGUGAUGUUGGGUUGCU [Same State Theophylline A GF 15] ?
Condition met

Now consider UGACAUUGCUCAGAUACCAGACCUGAGGAACACCCAGGUGCCAAAACGUACUAAAUAAAGGUCCCUUGGCAGCUGAGCAAUGUCU [TheoBX 13] and answer again.
Condition not met
